Target: murine GRPRs (Mus musculus)
Construct: from tissue; host or cells: organs of male NMRI mice, in vivo (pancreas, stomach, small intestine and others)
Sequence (P21729 whole entry): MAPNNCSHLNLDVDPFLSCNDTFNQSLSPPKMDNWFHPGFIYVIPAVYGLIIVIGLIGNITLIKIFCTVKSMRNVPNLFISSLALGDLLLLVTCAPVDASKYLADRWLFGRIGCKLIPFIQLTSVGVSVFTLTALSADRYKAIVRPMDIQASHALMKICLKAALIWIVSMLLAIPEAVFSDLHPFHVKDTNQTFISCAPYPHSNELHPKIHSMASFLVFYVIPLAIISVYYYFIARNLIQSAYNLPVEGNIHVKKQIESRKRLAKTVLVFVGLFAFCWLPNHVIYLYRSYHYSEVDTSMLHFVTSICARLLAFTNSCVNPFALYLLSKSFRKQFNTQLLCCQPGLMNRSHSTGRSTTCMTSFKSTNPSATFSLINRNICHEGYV
Test: Biodistribution and in vivo binding specificity in NMRI mice
Settings: liver, iv, total radioactivity, male NMRI mice, 45 pmol i.v., 1 h p.i., read-out: Liver uptake
Outcome Measure: tissue uptake at 1 h (%ID/g)
Entry rule: numbers only, all in %ID/g.

So for CC(C)C[C@H](NC(=O)C[C@H](O)[C@H](CC(C)C)NC(=O)[C@H](Cc1c[nH]cn1)NC(=O)CNC(=O)[C@@H](NC(=O)[C@H](C)NC(=O)[C@H](Cc1c[nH]c2ccccc12)NC(=O)[C@H](CCC(N)=O)NC(=O)[C@@H](Cc1ccccc1)NC(=O)COCCOCCNC(=O)CN1CCN(CC(=O)O)CCN(CC(=O)O)CC1)C(C)C)C(N)=O [[^18F]AlF-NOTA-P2-RM26] , the logged tissue uptake at 1 h turned out to be 1.2
